TGT: Human recombinant MAO-B (hMAO-B) (Homo sapiens, UniProt P27338)
Construct: purchased Sigma-Aldrich (St. Louis, MO); host or cells: insect cells
Sequence (P27338 whole entry): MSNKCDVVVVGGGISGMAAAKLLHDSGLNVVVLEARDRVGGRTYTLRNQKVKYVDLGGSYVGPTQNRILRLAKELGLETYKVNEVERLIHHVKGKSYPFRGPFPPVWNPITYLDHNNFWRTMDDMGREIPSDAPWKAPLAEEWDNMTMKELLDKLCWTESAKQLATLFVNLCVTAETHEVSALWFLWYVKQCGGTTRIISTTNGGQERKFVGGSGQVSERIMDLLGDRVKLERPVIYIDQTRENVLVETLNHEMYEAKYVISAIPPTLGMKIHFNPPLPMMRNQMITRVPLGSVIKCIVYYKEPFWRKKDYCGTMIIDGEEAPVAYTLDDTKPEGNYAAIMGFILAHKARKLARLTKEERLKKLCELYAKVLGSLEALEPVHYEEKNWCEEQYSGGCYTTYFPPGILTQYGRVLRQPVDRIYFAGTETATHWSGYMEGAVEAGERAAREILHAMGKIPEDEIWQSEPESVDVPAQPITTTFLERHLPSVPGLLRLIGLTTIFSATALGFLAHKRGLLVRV
ASSAY_REMARKS: Monoamine oxidase enzyme assay (Amplex Red), MAO-B
Assay type: biochemical
CONDITION_INFO: single dose of 10 µM of compound; read-out: Inhibition percent of MAO-B
TEST_READOUT: inhibition at 10 µM (%)

COMPOUND	TEST_READOUT	VALUE_MEASURED
O=C(Nc1ccc2c(ccn2Cc2ccccn2)c1)c1ccnnc1	inhibition at 10 µM	1.83

(P) O=C(Nc1ccc2c(ccn2C(=O)c2cccc(F)c2)c1)c1ccnnc1
(Q) O=C(Nc1ccc2c(ccn2Cc2ccccn2)c1)c1cnccn1
(R) O=C(Nc1ccc2c(ccn2C(=O)c2cccc(F)c2)c1)c1cnccn1
(S) O=C(Nc1ccc2c(ccn2C(=O)c2cccc(F)c2)c1)c1cccnc1
(T) Cn1ccc2cc(NC(=O)c3ccnnc3)ccc21
Put these in order: smallest inhibition at 10 µM first, largest last. Put the labels in the order asked and list them.
Q, T, P, S, R

###

TGT: Human recombinant MAO-B (hMAO-B) (Homo sapiens)
Construct: purchased Sigma-Aldrich (St. Louis, MO); host or cells: insect cells
ASSAY_REMARKS: Monoamine oxidase enzyme assay (Amplex Red), MAO-B
Assay type: biochemical
CONDITION_INFO: single dose of 10 µM of compound; read-out: Inhibition percent of MAO-B
TEST_READOUT: inhibition at 10 µM (%)

Some entries whose results are on file:
MOLECULE	TGT	UNIT_ABBREV	inhibition at 10 µM
Cn1ccc2cc(NC(=O)c3cccnc3)ccc21 [4l, N-(1-methyl-1H-indol-5-yl)nicotinamide]	Human recombinant MAO-B (hMAO-B) (Homo sapiens)	%	11.6
O=C(Nc1ccc2c(ccn2Cc2ccc(F)cc2)c1)c1cccnc1	Human recombinant MAO-B (hMAO-B) (Homo sapiens)	%	11.2

(1) O=C(Nc1ccc2c(ccn2Cc2ccccn2)c1)c1cccnc1
(2) O=C(Nc1ccc2c(ccn2Cc2ccc(F)cc2)c1)c1ccnnc1
(3) Cn1ccc2cc(NC(=O)c3cnccn3)ccc21
Task for the reader: rank each entry by its inhibition at 10 µM, from the minimum upward. Please respond with the labels ordered as the question requires.
1, 2, 3
